Please respond with reported Imax [%] (mean ± SEM), membrane cyclase assay for every item in the list.
TESTED TARGET: hNpr1 (Homo sapiens)
Sequence (P16066 33-1061): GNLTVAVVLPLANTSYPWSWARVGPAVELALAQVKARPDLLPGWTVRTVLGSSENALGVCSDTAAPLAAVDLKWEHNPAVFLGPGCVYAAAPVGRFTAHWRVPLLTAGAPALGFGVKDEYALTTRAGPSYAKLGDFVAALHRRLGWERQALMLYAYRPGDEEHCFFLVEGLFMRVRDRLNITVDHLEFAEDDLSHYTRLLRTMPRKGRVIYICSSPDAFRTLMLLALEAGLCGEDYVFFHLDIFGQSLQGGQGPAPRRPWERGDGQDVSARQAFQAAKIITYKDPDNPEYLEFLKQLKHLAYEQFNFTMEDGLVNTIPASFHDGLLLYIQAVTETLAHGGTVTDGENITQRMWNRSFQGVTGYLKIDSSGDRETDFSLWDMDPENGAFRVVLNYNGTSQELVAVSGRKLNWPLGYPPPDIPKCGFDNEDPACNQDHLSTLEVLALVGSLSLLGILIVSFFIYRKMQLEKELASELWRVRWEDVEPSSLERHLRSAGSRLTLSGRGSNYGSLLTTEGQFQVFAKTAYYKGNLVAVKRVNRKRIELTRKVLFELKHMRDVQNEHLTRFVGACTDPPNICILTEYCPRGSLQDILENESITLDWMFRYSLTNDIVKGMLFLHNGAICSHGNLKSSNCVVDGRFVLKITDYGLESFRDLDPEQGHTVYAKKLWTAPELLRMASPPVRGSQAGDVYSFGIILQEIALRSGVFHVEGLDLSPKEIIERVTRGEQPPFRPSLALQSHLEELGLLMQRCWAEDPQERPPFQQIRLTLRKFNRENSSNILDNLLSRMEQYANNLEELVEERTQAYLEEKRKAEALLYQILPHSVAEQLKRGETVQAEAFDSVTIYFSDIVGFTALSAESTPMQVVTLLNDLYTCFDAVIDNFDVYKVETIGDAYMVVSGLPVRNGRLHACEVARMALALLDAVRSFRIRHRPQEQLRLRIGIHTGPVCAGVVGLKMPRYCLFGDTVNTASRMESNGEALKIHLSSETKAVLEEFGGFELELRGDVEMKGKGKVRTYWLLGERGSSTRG
ASSAY SUMMARY: Cell-free hNpr1 membrane cyclase assay (cGMP ELISA)
Assay type: biochemical
CONDITIONS: membranes of HEK-hNpr1-cGMP-sensor cells, hNppa-stimulated
Give the number; % is assumed, so skip it.

Need Imax [%] (mean ± SEM), membrane cyclase assay, item "CCC(CC)c1cc([C@H]2CN3CC[C@H]2C[C@@H]3CNS(=O)(=O)c2cccs2)nc(-c2ccncc2)n1"
−98.2

Need Imax [%] (mean ± SEM), membrane cyclase assay, item "Cc1nn2c(c1-c1ccccc1OCc1ccccc1)N(C(=O)Cc1ccc3c(c1)OCO3)CCC2"
−98.0

Need Imax [%] (mean ± SEM), membrane cyclase assay, item "COc1cc(CN2CCC(C)(NC(C)=O)CC2)cc(-c2ccncc2)c1"
−96.1

Need Imax [%] (mean ± SEM), membrane cyclase assay, item N#Cc1ccccc1CN1CCCC(C(=O)NCc2ccccc2)CCNC(=O)CC1 (stereo not drawn)
−94.4

Need Imax [%] (mean ± SEM), membrane cyclase assay, item "COc1ccc(C2(C(=O)N3CCC4(CC3)c3nccn3-c3ccccc3CN4C)CC2)cc1"
−99.0

Need Imax [%] (mean ± SEM), membrane cyclase assay, item "Cc1cc(CNC(=O)c2ccc3c(c2)n(CC2CC2)c(=O)n3C2CCCCC2)on1"
−99.7

Need Imax [%] (mean ± SEM), membrane cyclase assay, item "O=C(NCc1cccnc1)c1cnc2[nH]nc(-c3ccccc3)c2n1"
−98.4

Need Imax [%] (mean ± SEM), membrane cyclase assay, item "COc1ccccc1-c1n[nH]c2ncc(C(=O)NCc3cccnc3)nc12"
−99.4

Need Imax [%] (mean ± SEM), membrane cyclase assay, item "CN(Cc1ccccc1)C(=O)c1cn2ccnc(-c3ccccc3)c2n1"
−99.0
